- ASSAY DETAILS: Toxicity liver stage against HepG2, at 10uM
- Type: cell-based
- Design: test concentration 10 uM, cell line HepG2-A16-CD81EGFP
- CONDITION LABEL: human, HepG2-A16-CD81EGFP cells; read-out: INHIBITION
PROPERTY NAME: cytotoxicity at 10 µM (%)
Field format: number, assumed %, no unit text.

A selection of reference data follows.
COMPOUND: O=S(=O)(c1ccc(F)cc1)N1CCCCC1c1cc[nH]n1 (stereo not drawn)
READOUT UNITS: %
cytotoxicity at 10 µM: -3.55
//
COMPOUND: COCCO[C@H]1CCN(C(=O)NC2CC2)[C@H]1Cc1cnn(C)c1
READOUT UNITS: %
cytotoxicity at 10 µM: 8.36
//
COMPOUND: C=C(C)COc1ccccc1NC(=O)NC1CCOCC1
READOUT UNITS: %
cytotoxicity at 10 µM: 4.67
//
COMPOUND: COc1ccc(CN2CCC3(CC2)CCN(CC2CC2)C3=O)cc1
READOUT UNITS: %
cytotoxicity at 10 µM: 8.18
//
COMPOUND: CC(C)Oc1ccc(C(O)CNCc2ccccc2C(F)(F)F)cc1 (stereo not drawn)
READOUT UNITS: %
cytotoxicity at 10 µM: -1.71
//
COMPOUND: CCOCC1CN(S(=O)(=O)C2CC2)Cc2cnn(C)c21 (stereo not drawn)
READOUT UNITS: %
cytotoxicity at 10 µM: -66.8

Q) // lookup cytotoxicity at 10 µM for Cc1cc(C)n(CC(C)CNC(=O)N(C)Cc2cc(C)on2)n1 (stereo not drawn)
A) -10.2
